- ASSAY_PROCEDURE: Kinetic solubility in PBS buffer (Method 5)
- Assay type: physicochemical
- CONDITION_DETAILS: aqueous buffer, kinetic from dmso stock; PBS buffer pH 7.4
What solubility kinetic at 90 min was measured for each of the following?

Task item: # return recorded solubility kinetic at 90 min for entry Cc1cc(Nc2ncc3c(n2)N(C)CN(c2c(Cl)cccc2Cl)C3=O)ccc1N1CCNCC1 [drawing 385]
Reply: > 150 µM

Task item: Look up and state reported solubility kinetic at 90 min for Cc1cc(Nc2ncc3c(=O)n(-c4c(Cl)cccc4Cl)cc(C)c3n2)ccc1N1CCNCC1 [reference compound]
Reply: < 50 µM

Task item: Tell me solubility kinetic at 90 min reported for Cc1cn(-c2c(Cl)cccc2Cl)c(=O)c2cnc(Nc3ccc(N4CCNCC4)cc3)nc12 [reference compound]
Reply: < 50 µM

Task item: Give recorded solubility kinetic at 90 min. CN1CN(c2c(Cl)cccc2Cl)C(=O)c2cnc(Nc3ccc(N4CCNCC4)cc3)nc21 [drawing 383]
Reply: > 150 µM

* * *

So I've got a bunch of molecules here, and I need their IC50 values.

Task item: State IC50 on Wee-1 kinase (Homo sapiens). Entry: CN1CC=C(c2ccc(Nc3ncc4c(n3)N(C)CN(c3c(Cl)cccc3Cl)C4=O)cc2CO)CC1 [Example 180]
Sequence (P30291 whole entry): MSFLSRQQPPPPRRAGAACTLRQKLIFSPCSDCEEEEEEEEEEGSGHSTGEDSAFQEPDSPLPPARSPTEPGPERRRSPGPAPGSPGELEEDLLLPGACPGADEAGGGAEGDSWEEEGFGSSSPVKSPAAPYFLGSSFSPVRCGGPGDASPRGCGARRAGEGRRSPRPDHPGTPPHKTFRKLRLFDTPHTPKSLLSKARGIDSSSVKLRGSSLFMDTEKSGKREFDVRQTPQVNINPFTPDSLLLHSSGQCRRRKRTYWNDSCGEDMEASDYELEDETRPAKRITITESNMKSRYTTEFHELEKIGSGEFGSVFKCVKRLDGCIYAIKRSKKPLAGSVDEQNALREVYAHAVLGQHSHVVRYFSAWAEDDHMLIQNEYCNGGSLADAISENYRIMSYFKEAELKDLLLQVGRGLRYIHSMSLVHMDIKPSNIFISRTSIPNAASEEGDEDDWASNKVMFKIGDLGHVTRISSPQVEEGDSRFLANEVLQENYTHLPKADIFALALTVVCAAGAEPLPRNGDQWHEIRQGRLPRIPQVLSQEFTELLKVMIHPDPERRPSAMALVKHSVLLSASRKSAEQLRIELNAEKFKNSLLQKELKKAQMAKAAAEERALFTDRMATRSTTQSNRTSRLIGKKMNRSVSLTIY
Reply: ≤ 10 nM

Task item: Jot down IC50 (Wee-1 kinase (Homo sapiens)) of C[C@@H]1CN[C@@H](C)CN1c1ccc(Nc2ncc3c(n2)N(C)CN(c2ccccc2Cl)C3=O)cc1 [Example 98] .
Reply: 10 to 100 nM

Task item: Report the value of IC50 obtained on Wee-1 kinase (Homo sapiens) for CNCc1cc(Nc2ncc3c(n2)N(C)CN(c2c(Cl)cccc2Cl)C3=O)ccc1-c1ccncc1 [Example 155] .
Reply: 10 to 100 nM

Task item: Give IC50; test system Wee-1 kinase (Homo sapiens); molecule C[C@@H]1CN[C@@H](C)CN1c1ccc(Nc2ncc3c(n2)N(C)CN(c2c(F)cccc2Cl)C3=O)cc1 [Example 93]
Reply: 10 to 100 nM

* * *

- ASSAY_PROCEDURE: CLint estimates using human liver microsomes (Method 4)
- Format: in vitro ADME
- CONDITION_DETAILS: pH 7.4, 1 μM compound, read-out: Mics - CLint (HLM CLint)
METRIC_NAME: microsomal CLint at 1 μM

Task item: Consider the compound C[C@@H]1CN(c2ccc(Nc3ncc4c(n3)N(C)CN(c3c(Cl)cccc3Cl)C4=O)cc2)CCN1C . State its measured microsomal CLint at 1 μM.
Reply: 15 to 50 µL/min/mg

Task item: For the compound CC(C)N1CCN(c2ccc(Nc3ncc4c(n3)N(C)CN(c3c(F)cccc3Cl)C4=O)cc2CO)CC1 , give its measured microsomal CLint at 1 μM value.
Reply: ≤ 15 µL/min/mg

Task item: # return recorded microsomal CLint at 1 μM for input CN1CN(c2c(Cl)cccc2Cl)C(=O)c2cnc(Nc3ccc(C4CCNCC4)cc3)nc21
Reply: ≤ 15 µL/min/mg

Task item: Give the reported microsomal CLint at 1 μM for this compound. C[C@H]1CN(c2ccc(Nc3ncc4c(n3)N(C)CN(c3c(Cl)cccc3Cl)C4=O)cc2)CCN1
Reply: 15 to 50 µL/min/mg

Task item: Entry CN1CN(c2c(Cl)cccc2Cl)C(=O)c2cnc(Nc3ccc(N4CCNCC4)cc3)nc21 needs its microsomal CLint at 1 μM filled in; supply it.
Reply: 15 to 50 µL/min/mg

Task item: Please look at this compound and report its microsomal CLint at 1 μM: CNCC(=O)N1CCN(c2ccc(Nc3ncc4c(n3)N(C)CN(c3c(Cl)cccc3Cl)C4=O)cc2)CC1
Reply: ≤ 15 µL/min/mg

Task item: # return recorded microsomal CLint at 1 μM for input CN1CN(c2c(Cl)cccc2Cl)C(=O)c2cnc(Nc3ccc(N4CCN5CCOC[C@@H]5C4)c(CO)c3)nc21
Reply: 15 to 50 µL/min/mg

Task item: Identify measured microsomal CLint at 1 μM corresponding to C[C@@H]1CN(c2ccc(Nc3ncc4c(n3)N(C)CN(c3c(Cl)cccc3Cl)C4=O)cc2)[C@@H](C)CN1
Reply: 15 to 50 µL/min/mg

Task item: Item CN1Cc2cc(Nc3ncc4c(n3)N(C)CN(c3c(Cl)cccc3Cl)C4=O)ccc2C2(CC2)C1 : provide microsomal CLint at 1 μM
Reply: ≥ 50 µL/min/mg

Task item: Retrieve microsomal CLint at 1 μM measured for CN1CN(c2c(Cl)cccc2Cl)C(=O)c2cnc(Nc3ccc(C4(N)CCC4)cc3)nc21 and print it.
Reply: 15 to 50 µL/min/mg

Task item: Return microsomal CLint at 1 μM (reported value) for this compound: CN1CN(c2c(Cl)cccc2Cl)C(=O)c2cnc(Nc3ccc(N4CC5CCC(C4)N5)cc3)nc21
Reply: ≤ 15 µL/min/mg

Task item: Find the measured microsomal CLint at 1 μM of CN(C)CC(=O)N1CCN(c2ccc(Nc3ncc4c(n3)N(C)CN(c3c(Cl)cccc3Cl)C4=O)cc2)CC1 and report it.
Reply: ≥ 50 µL/min/mg

Task item: Indicate its recorded microsomal CLint at 1 μM; the compound in question is CN1CN(c2ccccc2Cl)C(=O)c2cnc(Nc3ccc(N4CC5CCC(C4)N5C)c(CO)c3)nc21
Reply: ≤ 15 µL/min/mg

Task item: Assign microsomal CLint at 1 μM to the following record: CN1CN(c2c(Cl)cccc2Cl)C(=O)c2cnc(Nc3ccc(N4CCNC(C)(C)C4)cc3)nc21
Reply: 15 to 50 µL/min/mg

Task item: Read off the recorded microsomal CLint at 1 μM for CNCCOc1ccc(Nc2ncc3c(n2)N(C)CN(c2c(Cl)cccc2Cl)C3=O)cc1
Reply: ≤ 15 µL/min/mg

* * *

pIC50: −log10 of the molar value.
METRIC_NAME: pIC50

Task item: Please report the measured pIC50 for CN1CN(c2c(Cl)cccc2Cl)C(=O)c2cnc(Nc3ccc(N4CCN[C@H](CO)C4)cc3)nc21 tested on UniProt P30291.
Reply: ≥ 8.00

Task item: Report pIC50 on UniProt P30291 for this entry: O=C1c2cnc(Nc3ccc(N4CCNCC4)cc3)nc2N2CCCC2N1c1c(Cl)cccc1Cl (stereo not shown)
Reply: 7.00 to 8.00

Task item: State measured pIC50 of the compound C[C@@H]1CN(c2ccc(Nc3ncc4c(n3)N(C)CN(c3c(Cl)cccc3Cl)C4=O)cc2)C[C@H](C)N1C with UniProt P30291.
Reply: 7.00 to 8.00

Task item: Give the observed pIC50 of C[C@@H]1CN(c2ccc(Nc3ncc4c(n3)N(C)CN(c3c(Cl)cccc3Cl)C4=O)cc2F)CCN1C for UniProt P30291.
Reply: 7.00 to 8.00

Task item: Name the recorded pIC50 of C[C@@H]1CN[C@@H](C)CN1c1ccc(Nc2ncc3c(n2)N(C)CN(c2ccccc2Cl)C3=O)cc1F , assay system UniProt P30291.
Reply: 7.00 to 8.00

Task item: Quote pIC50 with test system UniProt P30291 for CN1CN(c2c(Cl)cccc2Cl)C(=O)c2cnc(Nc3ccc(N4CC5CCC(C4)N5)cc3)nc21
Reply: 7.00 to 8.00

Task item: Output reported pIC50 of the compound CNCc1cc(Nc2ncc3c(n2)N(C)CN(c2c(Cl)cccc2Cl)C3=O)ccc1N1CCOCC1 on UniProt P30291.
Reply: ≥ 8.00

* * *

- TESTED_ON: Wee-1 kinase (Homo sapiens)
Field: IC50. Provide a value for each of the compounds that follow.

Task item: Quote IC50 reported for CN1CN(c2c(Cl)cccc2Cl)C(=O)c2cnc(Nc3ccc(N4CCN(C)[C@H](CO)C4)cc3)nc21 [Example 49] please.
Reply: 0.01 to 0.1 µM

Task item: Provide one value: measured IC50 of CN1CN(c2c(Cl)cccc2Cl)C(=O)c2cnc(Nc3ccc(N4C[C@@H]5C[C@H]4CN5)cc3)nc21 [Example 39]
Reply: 0.01 to 0.1 µM

Task item: Look up and state reported IC50 for COC[C@H]1CN(c2ccc(Nc3ncc4c(n3)N(C)CN(c3c(Cl)cccc3Cl)C4=O)cc2)CCN1 [Example 60]
Reply: 0.01 to 0.1 µM

Task item: Tell us which IC50 value is on record for CN1CN(c2c(Cl)cccc2Cl)C(=O)c2cnc(Nc3ccc(CN4CCNCC4)cc3)nc21 [Example 12]
Reply: 0.01 to 0.1 µM

Task item: Please report the measured IC50 for CN1CN(c2c(Cl)cccc2Cl)C(=O)c2cnc(Nc3ccc(N4CCN(C)C(C(F)(F)F)C4)cc3)nc21 (stereo not drawn) [Example 68]
Reply: ≥ 0.1 µM

Task item: Read off the recorded IC50 for CN1CN(c2c(Cl)cccc2Cl)C(=O)c2cnc(Nc3ccc4c(c3)C3CCC4N3C)nc21 (stereo not drawn) [Example 175]
Reply: ≤ 0.01 µM

Task item: Assign IC50 to the following record: C[C@@H]1CN(c2ccc(Nc3ncc4c(n3)N(C)CN(c3c(Cl)cccc3Cl)C4=O)c(F)c2)CCN1 [Example 142]
Reply: ≥ 0.1 µM

Task item: Specify IC50 for CN1CN(c2c(Cl)cccc2Cl)C(=O)c2cnc(Nc3ccc(N4CC5COCC(C4)N5)c(CO)c3)nc21 [Example 173] and stop.
Reply: 0.01 to 0.1 µM

Task item: Indicate its recorded IC50; the compound in question is O=C1c2cnc(Nc3ccc(N4CCNCC4)cc3)nc2NCN1c1c(Cl)cccc1Cl [Example 9]
Reply: 0.01 to 0.1 µM

Task item: In one line, give reported IC50 of the entry CN1CN(c2c(Cl)cccc2Cl)C(=O)c2cnc(Nc3ccc(OC4CCNCC4)cc3)nc21 [Example 87] .
Reply: 0.01 to 0.1 µM

Task item: State its IC50: C[C@@H]1CN(c2ccc(Nc3ncc4c(n3)N(C)CN(c3c(Cl)cccc3Cl)C4=O)cc2CO)CCN1 [Example 38]
Reply: ≤ 0.01 µM

Task item: Supply recorded IC50 for Cc1cc(Nc2ncc3c(n2)N(C)CN(c2c(Cl)cccc2Cl)C3=O)ccc1N1C[C@@H]2C[C@H]1CN2C [Example 77] here.
Reply: ≤ 0.01 µM

Task item: Note IC50 for the compound shown: Cc1cc(Nc2ncc3c(n2)N(C)CN(c2c(F)cccc2Cl)C3=O)ccc1N1CCNCC1 [Example 55]
Reply: ≤ 0.01 µM

Task item: Give IC50 for CN1CN(c2c(Cl)cccc2Cl)C(=O)c2cnc(Nc3ccc(N4CC5COCC(C4)N5)cc3)nc21 [Example 64]
Reply: 0.01 to 0.1 µM

Task item: Supply recorded IC50 for Cc1cc(Nc2ncc3c(n2)N(C)CN(c2c(Cl)cccc2Cl)C3=O)ccc1C1=CCNCC1 [Example 177] here.
Reply: ≤ 0.01 µM

Task item: Entry CN1CN(c2c(Cl)cccc2Cl)C(=O)c2cnc(Nc3ccc(N4CC5CCC(C4)N5C)cc3)nc21 [Example 88] needs its IC50 filled in; supply it.
Reply: ≤ 0.01 µM

Task item: Please supply the value of reported IC50 for the item CN1CN(c2c(Cl)cccc2Cl)C(=O)c2cnc(Nc3ccc(N4C[C@@H]5C[C@H]4CN5)c(CO)c3)nc21 [Example 164]
Reply: ≤ 0.01 µM

Task item: Please supply the value of reported IC50 for the item CN(C)CC(O)c1cccc(Nc2ncc3c(n2)N(C)CN(c2c(Cl)cccc2Cl)C3=O)c1 (stereo not drawn) [Example 172]
Reply: 0.01 to 0.1 µM

Task item: Look up and report measured IC50 for this entry: Cc1cc(Nc2ncc3c(n2)N(C)CN(c2c(Cl)cccc2Cl)C3=O)ccc1C1CCNCC1 [Example 18]
Reply: ≤ 0.01 µM

Task item: # return recorded IC50 for entry CCN1CN(c2c(Cl)cccc2Cl)C(=O)c2cnc(Nc3ccc(N4CCNCC4)cc3)nc21 [Example 169]
Reply: 0.01 to 0.1 µM

Task item: Note down IC50 recorded for Cc1cc(Nc2ncc3c(n2)N(C)CN(c2ccccc2Cl)C3=O)ccc1N1C[C@@H]2C[C@H]1CN2 [Example 109]
Reply: 0.01 to 0.1 µM
